Sourced from patent US20240116985A1

Quick reference: IC50 of the listed items.
target: beta-catenin/TCF4 engagement (Homo sapiens, UniProt P35222); construct: expressed in transfected cells; host or cells: HEK293; experiment: Nano-BRET target engagement assay (B-cat-Halo & TCF4-Luc in HEK293 cells); format: cell-based; conditions: absolute IC50; read-out: NanoBRET Abs IC50
Sequence (P35222 whole entry): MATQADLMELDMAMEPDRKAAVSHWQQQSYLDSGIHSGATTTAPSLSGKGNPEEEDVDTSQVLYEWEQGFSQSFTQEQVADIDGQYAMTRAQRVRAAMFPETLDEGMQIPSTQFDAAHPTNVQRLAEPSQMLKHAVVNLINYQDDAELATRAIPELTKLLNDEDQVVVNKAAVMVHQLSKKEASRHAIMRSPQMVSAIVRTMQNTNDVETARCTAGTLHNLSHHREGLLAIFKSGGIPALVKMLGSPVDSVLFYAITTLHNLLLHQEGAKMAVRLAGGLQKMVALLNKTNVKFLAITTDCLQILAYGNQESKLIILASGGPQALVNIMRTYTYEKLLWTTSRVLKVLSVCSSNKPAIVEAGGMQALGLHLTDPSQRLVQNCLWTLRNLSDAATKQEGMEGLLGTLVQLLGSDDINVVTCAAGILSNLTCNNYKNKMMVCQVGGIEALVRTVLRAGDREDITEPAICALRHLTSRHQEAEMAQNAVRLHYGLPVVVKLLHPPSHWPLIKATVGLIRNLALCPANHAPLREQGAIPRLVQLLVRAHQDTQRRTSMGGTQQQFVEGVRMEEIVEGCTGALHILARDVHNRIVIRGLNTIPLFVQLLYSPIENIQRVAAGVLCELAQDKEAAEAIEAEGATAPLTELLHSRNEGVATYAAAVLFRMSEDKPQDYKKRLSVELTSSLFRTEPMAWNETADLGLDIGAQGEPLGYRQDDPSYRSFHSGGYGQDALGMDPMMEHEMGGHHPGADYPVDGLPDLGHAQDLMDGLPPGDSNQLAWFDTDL
Reply with just the number (in µM).

See these solved cases before continuing.
## Input Using the record for CC(=O)N1CCC[C@]12CC=CCCCC1(CCCC=CCCCOC(=O)N3CC[C@@](C(=O)N[C@@H](Cc4ccccc4Cl)C(=O)N[C@@H](Cc4csc5ccccc45)C(=O)N[C@@H](CO)C(N)=O)(C3)NC(=O)[C@H](CC(C)C)NC(=O)[C@H](Cc3ccccc3)NC(=O)[C@H](C)NC(=O)[C@H](C)NC(=O)[C@H](Cc3cc(C(=O)O)cc(C(F)(F)F)c3)NC(=O)[C@H](CC(=O)O)NC1=O)NC(=O)[C@H](CC(C)(C)C)NC(=O)[C@H](CC(=O)O)NC2=O (some centres unmarked) , report its IC50.
## Output 12.4

## Input Same read-out for CC(=O)N1CCC[C@]12CC=CCCCC1(CCCC=CCCCOC(=O)N3CC[C@@](C(=O)N[C@@H](Cc4ccsc4)C(=O)N[C@@H](Cc4csc5ccccc45)C(=O)N[C@@H](CCC(N)=O)C(N)=O)(C3)NC(=O)[C@H](CC(C)C)NC(=O)[C@H](Cc3ccccc3)NC(=O)[C@H](C)NC(=O)[C@H](C)NC(=O)[C@H](CCN(CC(=O)O)Cc3ccccc3)NC(=O)[C@H](CC(=O)O)NC1=O)NC(=O)[C@H](CC(C)(C)C)NC(=O)[C@H](CC(=O)O)NC2=O (some centres unmarked) ?
## Output 18.8

## Input Try this compound too: CC(=O)N1CCC[C@]12CC=CCCCC1(CCCC=CCCCCCC[C@@](C)(C(=O)N[C@@H](Cc3ccccc3)C(=O)N[C@@H](Cc3csc4ccccc34)C(=O)N[C@@H](CCC(N)=O)C(N)=O)NC(=O)[C@H](CCC(N)=O)NC(=O)[C@H](Cc3ccccc3)NC(=O)[C@H](C)NC(=O)[C@H](C)NC(=O)[C@H](CCC(=O)O)NC(=O)[C@H](CC(=O)O)NC1=O)NC(=O)[C@H](CC(C)C)NC(=O)[C@H](CC(=O)O)NC2=O (some centres unmarked) [I-1458]
## Output 18.1

Shift focus to the following entry.
## Input I'd like to know its IC50. The compound in question is CC(=O)N1CCC[C@]12CC=CCCCC1(CCCC=CCCCOC(=O)N3CC[C@@](C(=O)N[C@@H](Cc4ccccc4C(F)(F)F)C(=O)N[C@@H](Cc4csc5ccccc45)C(=O)N[C@@H](CO)C(N)=O)(C3)NC(=O)[C@H](CC(C)C)NC(=O)[C@H](Cc3ccccc3)NC(=O)[C@H](C)NC(=O)[C@H](C)NC(=O)[C@H](Cn3cc(CCC(=O)O)nn3)NC(=O)[C@H](CC(=O)O)NC1=O)NC(=O)[C@H](CC(C)(C)C)NC(=O)[C@H](CC(=O)O)NC2=O (some centres unmarked)
## Output 5
